- Tested on: Wolbachia pipientis
- Test Summary: Anti-Wolbachia Cell-Based Screen
- Format: functional
- Set-up: scale not given: in the data most compounds retested in dose-response had high values
- Setup Conditions: 5 µM
In all, about 48,000 compounds went through this assay and about 13,000 (27%) showed an effect of 50% or more. This is one part of the list.
Percent Effect for assorted compounds

Compound	Units Label	Percent Effect
CCOc1cc(C)nc(N2CCN(C(=O)c3cc(Cl)c[nH]3)CC2)n1	%	4.417
CNCC(=O)N1CCCC(c2ccnc(Nc3cnccn3)n2)C1 (stereo not given)	%	90.62
O=C(C1CCC1)N1CCCC(c2ccnc(Nc3cnccn3)n2)C1 (stereo not given)	%	48.97
COc1ccnc(N2Cc3cnc(C(C)(C)C)nc3C2)n1	%	-13.37
CSCC(=O)N(C)Cc1cnn(-c2ccc(F)cc2)c1	%	-3.16
COC(=O)c1sccc1S(=O)(=O)N1CCC(Oc2cccc(C)n2)CC1	%	-4.236
Cc1nonc1CN(C)Cc1cnn(-c2ccc(F)cc2)c1	%	116.4
Cc1cc(C2CCCN(C(=O)c3cnccn3)C2)ccn1 (stereo not given)	%	-6.489
O=C(O)C(F)(F)F.O=C([C@@H]1COC[C@H]2CN(C3CCCC3)C[C@H]21)N1CCC(F)CC1	%	-0.4691
Nc1ncc(CN2CCC(CCC(=O)NC3CC3)CC2)cn1	%	2.927
CCC1CN(CCNS(C)(=O)=O)c2ccccc2O1 (stereo not given)	%	-11.22
Cc1nonc1CN(C)Cc1cnn(-c2ccc(Cl)cc2)c1	%	133.6
CCS(=O)(=O)N1Cc2ncn(CC3CC3)c2C(COC)C1 (stereo not given)	%	96.93
O=C(C1CCCC1)N1CCC(c2ccnc(Nc3cnccn3)n2)C1 (stereo not given)	%	92.23
Cc1nonc1CN(C)Cc1nc(-c2ccccc2Cl)oc1C	%	-14.91
